test system: Plasmodium falciparum; test: Antiplasmodial activity against Plasmodium falciparum assessed as growth inhibition; format: functional, organism-based
Listed compounds paired with reported IC50
Form entry: value (nM) — number only.

# given.smiles, system, attribute.measured, observed.measurement
data = [
    ("CCNC(=O)c1noc(-c2cc(C(C)C)c(O)cc2O)c1NC(=O)c1cc(CN2CCOCC2)on1", "Plasmodium falciparum", "IC50", 36),
]

QUERY: Bench note: what IC50 did `CCNC(=O)c1noc2c1CN(C(=O)c1cc(C(C)C)c(O)cc1O)CC2` show?
RESULT: 4520

QUERY: Which IC50 reading was recorded for the compound `CCNC(=O)c1noc(-c2cc(C(C)C)c(O)cc2O)c1NC(=O)c1ccc(CN2CCOCC2)cc1` ?
RESULT: 25

QUERY: What measured IC50 goes with `CCNC(=O)c1noc(-c2cc(C(C)C)c(O)cc2O)c1NC(=O)[C@H]1CC[C@H](CNS(=O)(=O)c2ccc(F)cc2)CC1` ?
RESULT: 117

====

test system: Trypanosoma cruzi; experiment: Antitrypanosomal activity against Trypanosoma cruzi assessed as growth inhibition; type: functional, organism-based
attribute.measured: log10 of IC50 (log10 of the value in nM)
Please interpret these as log10 of IC50 where IC50 is in nM.

# molecule, log10 of IC50
data = [
    ("CCNC(=O)c1nnn(-c2cc(C(C)C)c(O)cc2O)c1-c1ccc(CN2CCOCC2)cc1", 1.43),
]

QUERY: Any idea what its log10 of IC50 is? The molecule is `CCNC(=O)c1noc(-c2cc(C(C)C)c(O)cc2O)c1NC(=O)c1ccco1`
RESULT: 3.14

QUERY: Query (molecule): CCNC(=O)c1noc(-c2cc(C(C)C)c(O)cc2O)c1NC(=O)C1CCC(OC)CC1 (stereo unspecified) ; field requested: log10 of IC50
RESULT: 3.43

QUERY: So what's the measured log10 of IC50 for this one? `CCOC(=O)c1noc2c1CN(C(=O)c1cc(C(C)C)c(O)cc1O)CC2`
RESULT: 2.79

QUERY: Using the record for `CCNC(=O)c1noc(-c2cc(C(C)C)c(O)cc2O)c1NC(=O)c1ccc(OC)cc1` , report its log10 of IC50.
RESULT: 2.64

QUERY: // log10 of IC50 lookup, key: `CCNC(=O)c1noc(-c2cc(C(C)C)c(O)cc2O)c1NC(=O)[C@@H]1CC[C@H](C(=O)OC)C1`
RESULT: 3.16

QUERY: If you can, please state the reported log10 of IC50 value of `CCNC(=O)c1noc(-c2cc(C(C)C)c(O)cc2O)c1NC(=O)[C@H]1CC[C@H](CNS(=O)(=O)c2ccc(F)cc2)CC1` .
RESULT: 3.62

QUERY: I'd like to know its log10 of IC50. The molecule in question is `CCNC(=O)c1noc(-c2cc(C(C)C)c(O)cc2O)c1NC(=O)CCN1CCOCC1`
RESULT: 4.22

QUERY: Look up log10 of IC50 for this molecule: `CCNC(=O)c1noc(-c2cc(C(C)C)c(O)cc2O)c1NC(=O)c1ccc(CN2CCOCC2)cc1`
RESULT: 3.82

QUERY: Would you mind telling me what log10 of IC50 value was observed for `CCNC(=O)c1noc(-c2cc(C(C)C)c(O)cc2O)c1NC(=O)c1cc(CC)on1` ?
RESULT: 2.74

QUERY: Fill in the blank: the reported log10 of IC50 of O=C(Cn1ccnc1[N+](=O)[O-])NCc1ccccc1 [BENZNIDAZOLE] is ____.
RESULT: 2.61

QUERY: Which log10 of IC50 is reported for this molecule? `CCNC(=O)c1noc(-c2cc(C(C)C)c(O)cc2O)c1NC(=O)c1cc(CN2CCOCC2)on1`
RESULT: 3.91

QUERY: Would you kindly share the measured log10 of IC50 for `CCNC(=O)c1noc2c1CN(C(=O)c1cc(C(C)C)c(O)cc1O)CC2` ?
RESULT: 3.00

QUERY: Need log10 of IC50, item `CCNC(=O)c1nnn(-c2cc(C(C)C)c(O)cc2O)c1-c1ccc(Cn2ccnc2)cc1`
RESULT: 3.70

QUERY: State the recorded log10 of IC50 for this entry: `CCNC(=O)c1nnn(-c2cc(C(C)C)c(O)cc2O)c1-c1ccc(CC2CCCC2)cc1`
RESULT: 2.86

QUERY: Consider the molecule `CCNC(=O)c1nnn(-c2cc(C(C)C)c(O)cc2O)c1-c1ccc(CNCN2CCOCC2)cc1` and give its measured log10 of IC50.
RESULT: 4.24

====

Listing of entries alongside the reported pIC50.
tested on: Plasmodium falciparum; experiment: Antiplasmodial activity against Plasmodium falciparum assessed as growth inhibition; format: functional, organism-based
Expect pIC50 as a plain number equal to -log10 of the molar concentration.

# compound, observed.measurement
data = [
    ("CCNC(=O)c1noc(-c2cc(C(C)C)c(O)cc2O)c1NC(=O)C1CCC(OC)CC1 (stereo unspecified)", 7.92),
    ("CCNC(=O)c1noc(-c2cc(C(C)C)c(O)cc2O)c1NC(=O)c1ccc(OC)cc1", 7.54),
    ("CCNC(=O)c1nnn(-c2cc(C(C)C)c(O)cc2O)c1-c1ccc(CC2CCCC2)cc1", 8.70),
    ("CCNC(=O)c1noc(-c2cc(C(C)C)c(O)cc2O)c1NC(=O)[C@@H]1CC[C@H](C(=O)OC)C1", 7.59),
    ("CCNC(=O)c1nnn(-c2cc(C(C)C)c(O)cc2O)c1-c1ccc(CN2CCOCC2)cc1", 9.00),
]

QUERY: What measured pIC50 is associated with `CCNC(=O)c1nnn(-c2cc(C(C)C)c(O)cc2O)c1-c1ccc(CNCN2CCOCC2)cc1` on Plasmodium falciparum?
RESULT: 8.40

====

tested on: Plasmodium falciparum; assay: Antiplasmodial activity against Plasmodium falciparum assessed as growth inhibition; assay type: functional, organism-based
pIC50: −log10 of the molar value.
Returns one of 1.0 or 0.0; 1.0 when pIC50 is >= 7.

Known results for compounds:
# given.smiles, system, assigned.category
data = [
    ("CCOC(=O)c1noc2c1CN(C(=O)c1cc(C(C)C)c(O)cc1O)CC2", "Plasmodium falciparum", 0.0),
    ("CCNC(=O)c1nnn(-c2cc(C(C)C)c(O)cc2O)c1-c1ccc(Cn2ccnc2)cc1", "Plasmodium falciparum", 1.0),
    ("CCNC(=O)c1noc(-c2cc(C(C)C)c(O)cc2O)c1NC(=O)c1ccco1", "Plasmodium falciparum", 1.0),
    ("CCNC(=O)c1noc(-c2cc(C(C)C)c(O)cc2O)c1NC(=O)c1cc(CC)on1", "Plasmodium falciparum", 1.0),
]

Next item in the queue.
QUERY: Is the recorded value of pIC50 equal to or greater than 7 for this compound? `CCNC(=O)c1noc(-c2cc(C(C)C)c(O)cc2O)c1NC(=O)CCN1CCOCC1`
RESULT: 1.0
